Test system: U251 CNS
Experiment: NCI-60 one-dose screen, 48 h (100 = growth as untreated, 0 = no growth, -100 = all killed)
Conditions: 10 µM unless noted
About 83,000 compounds went through this panel and 20% of them were active in at least one assay; those are over-represented in the sample as a whole.
test.readout: growth (%)
Numbers only, in %.

As a guide, the following entries are already answered.
N#CC[C@H](C1CCCC1)n1cc(-c2ncnc3[nH]ccc23)cn1	63.9
CS(=O)(=O)N1CCc2c(-c3cnc(N)nc3)nc(N3CCOCC3)nc21	12.4
CC(C)c1cc(CNc2nc(Nc3cc(C4CC4)[nH]n3)cc(N3CCN(C)CC3)n2)on1	1.02
COC(=O)[C@]12CC[C@@H](C)[C@H](C)[C@@H]1C1=CC[C@@H]3[C@@]4(C)C(C#N)=CC(C)=C4CC[C@@]3(C)[C@]1(C)CC2	87.2
COCCOc1cnc2ccn([C@H](C)c3nnc4c(F)cc(-c5cnn(C)c5)cn34)c(=O)c2c1	92.2

Go through the items and report each one's growth.
1. Clc1ccc2c(NCCNc3nc(N4CCCC4)nc4ccccc34)ccnc2c1
2. COc1ccc2c(c1)cn1c3ccc(O)cc3nc(N)c21
3. COc1ccc(Cl)c(Nc2nc3ccccc3nc2NS(=O)(=O)c2cccc(NC(=O)C(C)(C)N)c2)c1
4. Cn1c(=O)c(F)c(Nc2ccc(I)cc2F)c2c(=O)n(C[C@@H](O)CO)cnc21
5. CCCCN1CCCC[C@@H]1C(=O)N[C@H](C(=O)N(C)[C@H](CCc1nc(C(=O)N[C@@H](Cc2ccccc2)C[C@H](C)C(=O)OC)cs1)C(C)C)C(C)C
6. CC[n+]1c(/C=C/C=C2\N(C)c3ccccc3C2(C)C)sc2ccccc21

[A]
1. -44
2. 23.7
3. 35
4. 31.4
5. 83.8
6. 10.8

Go through the items and report each one's growth.
1. CCc1nc2ccc(Cc3ccc(C(=O)NO)cc3)cc2c(=O)n1CCc1ccccc1
2. CCc1ccc(C2=C(O)C(=O)C(c3ccc(CC)cc3)=C(O)C2=O)cc1
3. C/C(=C(/c1ccc(Cl)cc1)c1ccc(OCCN2CCCCC2)cc1)c1ccccc1

[A]
[-71.4, 1.63, 66.5]

Go through the items and report each one's growth.
1. Cc1cc(C(=O)NOCCO)c(Nc2ccc(I)cc2F)n(C)c1=O
2. Cc1ccc(NC(=O)c2ccc(CN3CCN(C)CC3)cc2)cc1Nc1nc(-c2cccnc2)cs1
3. O=C(Nc1cccc([N+](=O)[O-])c1)c1ccc(Cl)c(Cl)c1
4. CC1(C)NC(=O)c2[nH]c3c(Cl)c(Cl)ccc3c2C1C#N (centres undefined)
5. C=CCN(/C=C1/C(=O)O[C@H](COC)[C@@]2(C)C1=C(O)C(=O)C1=C2[C@H](OC(C)=O)C[C@]2(C)C(=O)CC[C@@H]12)CC=C

[A]
1: 51.8; 2: 6.69; 3: 62.4; 4: 81.7; 5: 21.1
